Consider the following binders; for each one, report its EC50.
Biological target: HA of A/Singapore/1/1957 (H2) (influenza A virus (H2), UniProt Q67333 16-525)
One number for each entry, in µg/mL.

Worked cases, EC50 given:
binder	EC50 / µg/mL
rFluA-20 heavy chain mutant Y34A (antibody, V domains shown) VH: QVQLQESGPGLVKPSETLSLTCSVSGVSVTSDIAYWTWIRQPPGKGLEWIGYIFYNGDTNYNPSLKSRVTMSIDTSKNEFSLRLTSVTAADTAVYFCARGTEDLGYCSSGSCPNHWGQGTLVTVSS VL: DIQMTQSPSSLSASIGDRVTITCRPSQNIRSFLNWFQHKPGKAPKLLIYAASNLQSGVPSRFSGSGSGTEFTLTIRSLQPEDFATYYCQQSYNTPPTFGQGTKVEIK	0.11
rFluA-20 heavy chain mutant E97A (antibody, V domains shown) VH: QVQLQESGPGLVKPSETLSLTCSVSGVSVTSDIYYWTWIRQPPGKGLEWIGYIFYNGDTNYNPSLKSRVTMSIDTSKNEFSLRLTSVTAADTAVYFCARGTADLGYCSSGSCPNHWGQGTLVTVSS VL: DIQMTQSPSSLSASIGDRVTITCRPSQNIRSFLNWFQHKPGKAPKLLIYAASNLQSGVPSRFSGSGSGTEFTLTIRSLQPEDFATYYCQQSYNTPPTFGQGTKVEIK	0.13
rFluA-20 light chain mutant N53A (antibody, V domains shown) VH: QVQLQESGPGLVKPSETLSLTCSVSGVSVTSDIYYWTWIRQPPGKGLEWIGYIFYNGDTNYNPSLKSRVTMSIDTSKNEFSLRLTSVTAADTAVYFCARGTEDLGYCSSGSCPNHWGQGTLVTVSS VL: DIQMTQSPSSLSASIGDRVTITCRPSQNIRSFLNWFQHKPGKAPKLLIYAASALQSGVPSRFSGSGSGTEFTLTIRSLQPEDFATYYCQQSYNTPPTFGQGTKVEIK	0.16

Switching to the query record.
Query: Any idea what its EC50 is? The binder is rFluA-20 heavy chain mutant T96A (antibody, V domains shown) VH: QVQLQESGPGLVKPSETLSLTCSVSGVSVTSDIYYWTWIRQPPGKGLEWIGYIFYNGDTNYNPSLKSRVTMSIDTSKNEFSLRLTSVTAADTAVYFCARGAEDLGYCSSGSCPNHWGQGTLVTVSS VL: DIQMTQSPSSLSASIGDRVTITCRPSQNIRSFLNWFQHKPGKAPKLLIYAASNLQSGVPSRFSGSGSGTEFTLTIRSLQPEDFATYYCQQSYNTPPTFGQGTKVEIK
Response: 0.07
